Test system: COLO 205
Test: NCI tumour cell line growth inhibition, 48 h
Counter-ions that a name gives are not always drawn. Active and inactive are the calls of the source. No stated cut-off is given here; in the data, active = GI50 up to about 1.1 µM and inactive = higher.
measured.quantity: GI50

// GI50 lookup, compound = CC(=O)Oc1ccccc1C(=O)Nc1ncc([N+](=O)[O-])s1 [NITAZOXANIDE] , result: 12.7 µM (inactive)

The recorded GI50 for entry O=C1CCCC2C(O)CCC[C@H]12 (stereo partly specified) equals > 100 µM (inactive)

Reported GI50 for Cc1cc(CC(O)c2ccc(Cl)c(Cl)c2)nc(O)n1 (stereo unspecified) was 31 µM (inactive)

Summary for this compound, c1ccc(-c2cs[s+]c2)cc1 : GI50 is > 100 µM (inactive)

GI50 recorded for this compound, Nc1n[c-](N)[n+](=O)c(N)c1NCO , is > 100 µM (inactive)

compound Oc1ccc2ccccc2c1/N=N\c1cccc2ccccc12 , GI50 observed: > 100 µM (inactive)

Short answer for Cc1nc(NC(=S)NC(=O)c2ccc(Cl)c(Cl)c2)sc1C(=O)/C=C/c1ccccc1[N+](=O)[O-] : GI50 was 18.4 µM (inactive)

Entry O=C(N/C(=C\c1ccc(Br)cc1)c1nc2ccccc2s1)c1ccccc1 — recorded GI50 = > 100 µM (inactive)

Noted for C/C(CC(=O)Nc1cc(C)ccc1C)=N/N=C(N)N : its GI50 reads > 100 µM (inactive)

// COc1cc2c(cc1OC)C13CCN4C=C5CCOC6CC(=O)N2C1C6C5CC43 (stereo unspecified) : GI50 value = > 100 µM (inactive)

Documented GI50 of CC/C(=C(\c1ccccc1)c1ccc(OCCN(C)C)cc1)c1ccccc1 [TAMOXIFEN CITRATE] : 4.1 µM (inactive)
